# system_tested: Nuclear receptor subfamily 1 group I member 2 (Homo sapiens)
# protocol_description: Human pregnane X receptor (PXR) small molecule agonists, qHTS assay (AID 1346982); further: nearly all actives have a fitted effect of over 35% in size; further: potency means the concentration at half of the fitted maximal effect
# experimental_conditions: PXR-Luc HepG2, CYP3A4 luciferase reporter, 24 h; series mostly up to 92.4 µM
Records with an inconclusive call do not appear. Active and inactive are the calls of the source. The call rests on the fitted dose curve; in most records, active means well fitted activation curve with a large enough effect in the repeat runs; inconclusive means weak or mixed curves; inactive means no such curve, though single readings can be large or run the other way.
metric_name: Potency

| compound | metric_name | value |
| --- | --- | --- |
| CSCC[C@H](NC(=O)[C@H](Cc1c[nH]c2ccccc12)NC(=O)CCNC(=O)OC(C)(C)C)C(=O)N[C@@H](CC(=O)O)C(=O)N[C@@H](Cc1ccccc1)C(N)=O | Potency | inactive |
| CCCCCCC(CO)CCCC (stereo not drawn) | Potency | inactive |
| C1CCCCC1 | Potency | inactive |
| Nc1cccc2c(N)cccc12 | Potency | 17.2 µM (active) |
| O=P(O)(O)Oc1ccccc1 | Potency | inactive |

[ask] Return the recorded Potency value; entry: `O=C1c2ccccc2C(=O)c2c(O)ccc(O)c21`
[reply] 4.86 µM (active)

[ask] Return the recorded Potency value; entry: `Cc1cn([C@H]2C[C@H](F)[C@@H](CO)O2)c(=O)[nH]c1=O`
[reply] inactive
